targetOrTestSystem: Yeast α-glucosidase
measurementDescription: Enzyme kinetic analysis of α-glucosidase inhibition (Dixon and Lineweaver-Burk plots)
conditionInfo: Dixon plot; pNPG 2.5, 1.25, 0.625 mM
observationType: Ki (µM)

| compound | observationType | observedResult |
| --- | --- | --- |
| Cc1cc2c(c(O)c1O)C(=O)c1c(O)cc(O)cc1C2=O [Alaternin, 2-hydroxy emodin] | Ki | 0.66 |

---

targetOrTestSystem: Yeast α-glucosidase
measurementDescription: α-Glucosidase inhibitory assay with pNPG as substrate
Assay type: biochemical
conditionInfo: test concentration up to 400 µg/mL in 10% DMSO, triplicate
observationType: α-Glucosidase IC50 (Mean ± SEM) (µg/mL)

| compound | unitInfo | observedResult |
| --- | --- | --- |
| Cc1cc(O)c2c(c1)C(=O)c1cccc(O)c1C2=O [Chrysophanol] | µg/mL | 46.81 |
| Cc1cc(O[C@@H]2O[C@H](CO[C@@H]3O[C@H](CO)[C@@H](O)[C@H](O[C@@H]4O[C@H](CO)[C@@H](O)[C@H](O)[C@H]4O)[C@H]3O)[C@@H](O)[C@H](O)[C@H]2O)c2c(c1)C(=O)c1cccc(O)c1C2=O [Chrysophanol triglucoside] | µg/mL | 197.06 |
| Cc1cc(O)c2c(c1)C(=O)c1cc(O)cc(O)c1C2=O [Emodin, 1,6,8-trihydroxy 3-methyl anthraquinone] | µg/mL | 1.02 |
| COc1cc2c(c(OC)c1OC)C(=O)c1c(cc(C)c(O)c1OC)C2=O [Chryso-obtusin] | µg/mL | 36.01 |
| Cc1cc2c(c(O)c1O)C(=O)c1c(O)cc(O)cc1C2=O [Alaternin, 2-hydroxy emodin] | µg/mL | 0.99 |
| Cc1cc(O[C@@H]2O[C@H](CO[C@@H]3O[C@H](CO)[C@@H](O)[C@H](O[C@@H]4O[C@H](CO[C@@H]5O[C@H](CO)[C@@H](O)[C@H](O)[C@H]5O)[C@@H](O)[C@H](O)[C@H]4O)[C@H]3O)[C@@H](O)[C@H](O)[C@H]2O)c2c(c1)C(=O)c1cccc(O)c1C2=O [Chrysophanol tetraglucoside] | µg/mL | 228.79 |

---

targetOrTestSystem: PTP1B (human recombinant) (Homo sapiens, UniProt P18031)
Construct: purchased Biomol International LP (Plymouth Meeting, PA, USA)
Sequence (P18031 whole entry): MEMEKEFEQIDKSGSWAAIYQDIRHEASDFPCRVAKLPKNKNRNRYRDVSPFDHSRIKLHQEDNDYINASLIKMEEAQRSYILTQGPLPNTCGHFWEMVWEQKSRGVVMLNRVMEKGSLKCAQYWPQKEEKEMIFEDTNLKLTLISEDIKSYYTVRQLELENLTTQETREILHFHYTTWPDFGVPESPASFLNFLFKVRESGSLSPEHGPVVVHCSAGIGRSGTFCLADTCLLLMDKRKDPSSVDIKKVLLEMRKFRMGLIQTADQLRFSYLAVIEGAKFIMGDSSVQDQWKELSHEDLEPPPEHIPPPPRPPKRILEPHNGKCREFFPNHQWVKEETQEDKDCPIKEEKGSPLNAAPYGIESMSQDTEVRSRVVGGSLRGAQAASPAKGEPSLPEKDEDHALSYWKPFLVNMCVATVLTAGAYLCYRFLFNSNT
measurementDescription: Protein tyrosine phosphatase 1B (PTP1B) inhibition assay with pNPP as substrate
Format: biochemical
conditionInfo: pNPP substrate; test concentration up to 100 µg/mL in 10% DMSO; triplicate
Quick rule: PTP1B IC50 (Mean ± SEM) of at least 30 µg/mL means Yes, below that means No.

| compound | labelValue |
| --- | --- |
| COc1cc2c(c(OC)c1OC)C(=O)c1c(cc(C)c(O[C@@H]3O[C@H](CO)[C@@H](O)[C@H](O)[C@H]3O)c1OC)C2=O [Chryso-obtusin-2-glucoside, chryso-obtusin-2-O-β-D-glucoside] | Yes |
| COc1c(O[C@@H]2O[C@H](CO)[C@@H](O)[C@H](O)[C@H]2O)c(C)cc2c1C(=O)c1c(O)cccc1C2=O | Yes |
| COc1cc2c(c(O)c1OC)C(=O)c1c(cc(C)c(O)c1OC)C2=O | No |
| Cc1cc(O[C@@H]2O[C@H](CO[C@@H]3O[C@H](CO)[C@@H](O)[C@H](O[C@@H]4O[C@H](CO[C@@H]5O[C@H](CO)[C@@H](O)[C@H](O)[C@H]5O)[C@@H](O)[C@H](O)[C@H]4O)[C@H]3O)[C@@H](O)[C@H](O)[C@H]2O)c2c(c1)C(=O)c1cccc(O)c1C2=O [Chrysophanol tetraglucoside] | Yes |
| COc1c(O)c(O)cc2c1C(=O)c1c(O)cc(C)cc1C2=O [2-Hydroxyemodin-1 methylether] | No |
| COc1c(O[C@@H]2O[C@H](CO)[C@@H](O)[C@H](O)[C@H]2O)cc2c(c1O)C(=O)c1c(cc(C)c(O)c1OC)C2=O [Gluco-aurantio obtusin] | Yes |
| Cc1cc(O[C@@H]2O[C@H](CO[C@@H]3O[C@H](CO)[C@@H](O)[C@H](O[C@@H]4O[C@H](CO)[C@@H](O)[C@H](O)[C@H]4O)[C@H]3O)[C@@H](O)[C@H](O)[C@H]2O)c2c(c1)C(=O)c1cccc(O)c1C2=O [Chrysophanol triglucoside] | Yes |
